Measurement Target: Adenosine receptor A2a (Homo sapiens)
Sequence (P29274 whole entry): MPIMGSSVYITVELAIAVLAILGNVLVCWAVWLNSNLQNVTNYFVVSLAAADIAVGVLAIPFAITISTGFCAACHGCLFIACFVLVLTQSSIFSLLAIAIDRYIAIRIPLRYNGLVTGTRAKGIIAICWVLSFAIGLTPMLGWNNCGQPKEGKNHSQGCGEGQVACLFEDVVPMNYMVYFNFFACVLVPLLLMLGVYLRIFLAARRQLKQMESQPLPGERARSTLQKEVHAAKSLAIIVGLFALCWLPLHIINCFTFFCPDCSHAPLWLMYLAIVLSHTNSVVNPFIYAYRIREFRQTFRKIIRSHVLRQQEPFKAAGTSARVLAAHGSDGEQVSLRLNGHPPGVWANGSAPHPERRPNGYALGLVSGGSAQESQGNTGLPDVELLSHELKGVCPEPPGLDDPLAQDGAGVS
Test Name: Displacement of [3H]ZM241385 from human adenosine A2A receptor expressed in HeLa cells at 1 uM by microplate beta scintillation counting
Assay type: cell-based
Readout Type: Activity (%)

- Compound: "CCCCCn1c(=O)c2[nH]c(Cc3cccs3)nc2n(Cc2ccco2)c1=O"
  Recorded Measurement: 10
- Compound: "O=c1c2[nH]c(Cc3c(F)cccc3F)nc2n(Cc2ccco2)c(=O)n1CC1CC1"
  Recorded Measurement: 6
- Compound: "CCSCCn1c(=O)c2[nH]c(Cc3cccs3)nc2n(Cc2ccco2)c1=O"
  Recorded Measurement: 4
- Compound: "CC[S+]([O-])CCn1c(=O)c2[nH]c(Cc3ccco3)nc2n(Cc2ccco2)c1=O (stereo not given)"
  Recorded Measurement: 5
- Compound: "COCCn1c(=O)c2[nH]c(Cc3cccs3)nc2n(Cc2ccco2)c1=O"
  Recorded Measurement: 34
- Compound: "CCSCCn1c(=O)c2[nH]c(Cc3ccco3)nc2n(Cc2ccco2)c1=O"
  Recorded Measurement: 17
- Compound: "CC(C)Cn1c(=O)c2[nH]c(Cc3cccs3)nc2n(Cc2ccco2)c1=O"
  Recorded Measurement: 11
- Compound: "C=CCn1c(=O)c2[nH]c(Cc3c(F)cccc3F)nc2n(Cc2ccco2)c1=O"
  Recorded Measurement: 11
- Compound: "COCCn1c(=O)c2[nH]c(Cc3c(F)cccc3F)nc2n(Cc2ccco2)c1=O"
  Recorded Measurement: 23
- Compound: "CCCn1c(=O)c2[nH]c(Cc3ccco3)nc2n(Cc2ccco2)c1=O"
  Recorded Measurement: 33
